- Tested on: P388 leukemia ip, CD2F1 mice, survival T/C
- measurement-protocol: NCI In Vivo Anticancer Drug Screen. Data for tumor model P388 Leukemia (intraperitoneal) in CD2F1 (CDF1) mice
- conditions: endpoint: median survival time; dose: 12.5 mg/kg/injection; schedule: Q01DX009 (ip); vehicle: saline with Tween-80
Toxic doses and inconclusive results are not listed. The calls were made as follows: active = survival T/C of 150% or more; inactive = T/C below 125% in these data.
Could you please pick one outcome from this set? yes (1) (active), no (0) (inactive)

Solved cases below.
Q: Recorded test outcome, item `CCCCCCCCCCCCCCCC[N+](C)(C)CCBr`
A: no (0)

Q: Param item: CC(Nc1ccc([N+](=O)[O-])c2nonc12)C(=O)O (centres undefined)
A: no (0)

Q: Param item: `Cc1cc(NCCCN(C)C)c2ccc3c(ccc4c(NCCCN(C)C)cc(C)nc43)c2n1`
A: no (0)

New cases:
Q: Recorded test outcome, item Clc1ccc(C(CCOc2ccccc2Br)Cn2ccnc2)c(Cl)c1 (centres undefined)
A: no (0)

Q: Param item: `O=[N+]([O-])c1ccc(Sc2ccc(Cl)cc2)c2nonc12`
A: no (0)

Q: Param item: CCN(CC)CCCC(C)Nc1c2ccc(C)cc2nc2ccc(OC)cc12 (centres undefined)
A: no (0)

Q: Param item: `N=C(N)SCc1nc(-c2ccc(Cl)cc2)no1`
A: no (0)

Q: Param item: `Cc1cnc(/C=N\NC(N)=S)c2cccc(N)c12`
A: yes (1)

Q: Param item: `CN(C)CCOc1ccc2c(c1)C(=O)/C(=C\c1ncc([N+](=O)[O-])n1C)C2`
A: no (0)

----------
- System: P388 leukemia ip, CD2F1 mice, survival T/C
- measurement-protocol: NCI In Vivo Anticancer Drug Screen. Data for tumor model P388 Leukemia (intraperitoneal) in CD2F1 (CDF1) mice
- conditions: endpoint: median survival time; dose: 200.0 mg/kg/injection; schedule: Q04DX003 (ip); vehicle: saline
Toxic doses and inconclusive results are not listed. The calls were made as follows: active = survival T/C of 150% or more; inactive = T/C below 125% in these data.
Could you please pick one outcome from this set? active, inactive

Q: Recorded test outcome, item `O=C(O)c1c[n+]([O-])ccc1OCc1ccccc1`
A: inactive

Q: Param item: `CS(=O)(=O)Nc1ccc(Nc2c3ccccc3nc3cc(Cl)ccc23)cc1`
A: active

Q: Param item: NC(COC(c1ccccc1)(c1ccccc1)c1ccccc1)C(=O)O (configuration not stated)
A: active

Q: Param item: `CC(C)(C)C=O`
A: inactive

Q: Param item: `O=C1CC(=P(c2ccccc2)(c2ccccc2)c2ccccc2)C(=O)O1`
A: inactive

New cases:
Q: Recorded test outcome, item O=C(O)C1CSC2(CCCCC2)N1 (configuration not stated)
A: inactive

Q: Param item: CCCCC(NC(C)(C)C)c1ccccc1 (configuration not stated)
A: inactive

----------
- Tested on: P388 leukemia ip, CD2F1 mice, survival T/C
- measurement-protocol: NCI In Vivo Anticancer Drug Screen. Data for tumor model P388 Leukemia (intraperitoneal) in CD2F1 (CDF1) mice
- conditions: endpoint: median survival time; dose: 120.0 mg/kg/injection; schedule: Q01DX005 (ip); vehicle: saline with Tween-80; higher = longer survival
- Protocol: The antitumor activity of compounds was measured in mice bearing transplantable tumors. Survival or tumor size were measured and the results are expressed as the measurement made in the treated group (T) divided by the measurement made in the vehicle treated control group (C). The tumor model used in this assay is P388 Leukemia (intraperitoneal) in CD2F1 (CDF1) mice
Inconclusive results and toxic doses are left out.
Catalogue of compounds with associated T/C

Consider the worked cases shown below.
Q: Which T/C is listed for Oc1cc2c(cc1C(c1ccc(Cl)cc1)N1CCOCC1)OCO2 (stereo unspecified) ?
A: 111 % of control

Q: Param item: COc1ccc(C2COc3cc(OC(C)=O)c(OC(C)=O)cc3C2)cc1 (stereo unspecified)
A: 103 % of control

Q: Param item: `COc1ccc2c(c1)OC(C)(C)[C@H](c1ccc(O)cc1)[C@@H]2c1ccccc1`
A: 90 % of control

Q: Param item: `Cc1cc(O)cc2c1c(=O)c1ccccc1n2C`
A: 100 % of control

Q: Param item: O=C(NC(Cc1c[nH]c2ccccc12)C(=O)O)C(=O)c1c[nH]c2ccccc12 (stereo unspecified)
A: 97 % of control

Let us examine a further case.
Q: Which T/C is listed for `Cc1c(=O)n(C)c2ccccc2[n+]1[O-]` ?
A: 93 % of control

Cited source: PubChem BioAssay AID330
